Origin of the recorded values: patent US20250313635A1

- MEASURED ON: T1, recombinant human αvβ1 integrin extracellular domains (human, UniProt P06756 1-992; P05556 1-728, Secreted glycoprotein heterodimer. It is biotinylated on the omitted Avitag, and an interchain disulfide sits in the omitted coiled-coils.)
- T1 construct: Soluble heterodimer co-expressed in Expi293 cells; also called hαvβ1; not shown: Alpha chain: acidic coiled-coil with cysteine and GG-Avitag; Beta chain: basic coiled-coil with cysteine and GG-Avitag
- METHOD: AlphaLISA blocking of human fibronectin binding
READOUT LABEL: IC50 (nM)
Dear colleague, please return just the value in nM, with no unit written.

BINDER	READOUT LABEL	OBSERVED
Ab-29 (antibody, V domains shown) VH: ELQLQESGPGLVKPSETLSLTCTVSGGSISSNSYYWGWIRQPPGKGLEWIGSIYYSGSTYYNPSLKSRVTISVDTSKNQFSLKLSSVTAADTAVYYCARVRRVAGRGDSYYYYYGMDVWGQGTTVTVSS VL: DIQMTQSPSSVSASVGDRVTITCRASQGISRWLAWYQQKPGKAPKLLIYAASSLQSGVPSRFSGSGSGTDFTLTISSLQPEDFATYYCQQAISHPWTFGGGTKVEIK	IC50	2.57
Ab-30 (antibody, V domains shown) VH: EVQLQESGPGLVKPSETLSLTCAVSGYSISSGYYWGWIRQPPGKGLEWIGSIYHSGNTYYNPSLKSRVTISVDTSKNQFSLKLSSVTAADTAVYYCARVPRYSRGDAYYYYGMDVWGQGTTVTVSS VL: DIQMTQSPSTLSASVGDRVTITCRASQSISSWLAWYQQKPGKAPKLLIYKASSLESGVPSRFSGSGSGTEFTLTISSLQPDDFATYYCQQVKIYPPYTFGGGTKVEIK	IC50	3.15
control antibody abituzumab (mAb-24) (antibody, V domains shown) VH: QVQLQQSGGELAKPGASVKVSCKASGYTFSSFWMHWVRQAPGQGLEWIGYINPRSGYTEYNEIFRDKATMTTDTSTSTAYMELSSLRSEDTAVYYCASFLGRGAMDYWGQGTTVTVSS VL: DIQMTQSPSSLSASVGDRVTITCRASQDISNYLAWYQQKPGKAPKLLIYYTSKIHSGVPSRFSGSGSGTDYTFTISSLQPEDIATYYCQQGNTFPYTFGQGTKVEIKR	IC50	0.93
Ab-32 (antibody, V domains shown) VH: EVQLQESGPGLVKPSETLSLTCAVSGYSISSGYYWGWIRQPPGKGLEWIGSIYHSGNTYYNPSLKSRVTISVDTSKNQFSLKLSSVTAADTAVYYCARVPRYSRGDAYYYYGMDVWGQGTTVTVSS VL: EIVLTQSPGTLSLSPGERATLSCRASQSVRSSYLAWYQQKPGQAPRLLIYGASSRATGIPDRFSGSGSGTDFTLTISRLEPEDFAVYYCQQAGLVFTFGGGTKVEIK	IC50	2.41
Ab-31 (antibody, V domains shown) VH: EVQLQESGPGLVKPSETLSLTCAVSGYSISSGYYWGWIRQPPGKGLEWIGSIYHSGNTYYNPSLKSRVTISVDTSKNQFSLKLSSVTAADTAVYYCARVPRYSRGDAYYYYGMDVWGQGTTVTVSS VL: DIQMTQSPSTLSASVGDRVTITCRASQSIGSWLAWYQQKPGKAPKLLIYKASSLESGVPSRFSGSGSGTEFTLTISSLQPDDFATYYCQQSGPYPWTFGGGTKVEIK	IC50	2.26

Query binder follows.
Q: What value of IC50 has been recorded for this entry: Ab-33 (antibody, V domains shown) VH: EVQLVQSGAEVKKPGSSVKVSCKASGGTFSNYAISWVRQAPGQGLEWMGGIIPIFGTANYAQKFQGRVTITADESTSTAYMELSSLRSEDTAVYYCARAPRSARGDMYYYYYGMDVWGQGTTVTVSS VL: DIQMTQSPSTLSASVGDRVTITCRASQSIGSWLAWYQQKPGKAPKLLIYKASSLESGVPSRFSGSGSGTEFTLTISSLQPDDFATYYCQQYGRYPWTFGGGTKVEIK
A: 1.27
